biological target: Isocitrate dehydrogenase [NADP], mitochondrial (Homo sapiens, UniProt P48735, R140Q); experiment: Inhibition of IDH2 R140Q mutant (unknown origin)
Sequence (P48735 40-452 R140Q limits assumed): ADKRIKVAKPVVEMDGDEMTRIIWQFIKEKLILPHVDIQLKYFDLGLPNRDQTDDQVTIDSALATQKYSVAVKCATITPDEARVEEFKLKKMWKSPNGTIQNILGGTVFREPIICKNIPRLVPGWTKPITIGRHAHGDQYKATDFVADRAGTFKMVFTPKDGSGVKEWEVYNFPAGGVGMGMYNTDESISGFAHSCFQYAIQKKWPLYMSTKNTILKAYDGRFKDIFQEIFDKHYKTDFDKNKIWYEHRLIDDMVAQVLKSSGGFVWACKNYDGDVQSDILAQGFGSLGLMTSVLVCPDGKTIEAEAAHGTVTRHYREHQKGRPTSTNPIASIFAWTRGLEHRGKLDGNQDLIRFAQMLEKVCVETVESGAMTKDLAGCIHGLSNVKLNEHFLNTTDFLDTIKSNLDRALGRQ
pIC50: −log10 of the molar value.
Observable: pIC50

The examples below pair each entry with its known result.
get_value(item= O=S(=O)(NC1CC1)c1ccc(-c2ccsc2)c(Nc2nc3ccc(Cl)c(Cl)c3[nH]2)c1 , readout=pIC50) returns 5.57

get_value(item= CC(C)(O)CNc1nc(Nc2ccnc(C(F)(F)F)c2)nc(-c2cccc(C(F)(F)F)n2)n1 , readout=pIC50) returns 6.51

get_value(item= O=S(=O)(NC1CC1)c1ccc(-c2ccsc2)c(Nc2nc3ccc(C(F)(F)F)c(Cl)c3[nH]2)c1 , readout=pIC50) returns 5.36

get_value(item= O=S(=O)(NC1CC1)c1ccc(-c2ccsc2)c(Nc2nc3ccc(F)c(F)c3[nH]2)c1 , readout=pIC50) returns 4.86

get_value(item= O=S(=O)(NC1CC1)c1ccc(-c2ccsc2)c(Nc2nc3ccccc3[nH]2)c1 , readout=pIC50) returns 5.27

P = O=S(=O)(NC1CC1)c1ccc(-c2ccsc2)c(Nc2nc3cc(F)cc(F)c3[nH]2)c1
Q = O=S(=O)(NC1CC1)c1ccc(-c2ccsc2)c(Nc2nc3ccc(Cl)cc3[nH]2)c1
R = Cc1ccc2nc(Nc3cc(S(=O)(=O)NC4CC4)ccc3-c3ccsc3)[nH]c2c1C
S = O=S(=O)(NC1CC1)c1ccc(-c2ccsc2)c(Nc2nc3cc(F)ccc3[nH]2)c1
Sort the 4 molecules by pIC50; largest first, smallest last. # answer = labels listed in requested order
S, R, P, Q

---

biological target: Isocitrate dehydrogenase [NADP], mitochondrial (Homo sapiens, UniProt P48735, R172K); assay: Inhibition of IDH2 R172K mutant (unknown origin)
Sequence (P48735 40-452 R172K limits assumed): as the sequence (P48735 40-452 R140Q limits assumed) above, with Q101R, R133K counted along it
Observable: IC50 (µM)

get_value(item= O=S(=O)(NC1CC1)c1ccc(-c2ccsc2)c(Nc2nc3cc(F)ccc3[nH]2)c1 , readout=IC50) returns 78.8

P = Cc1cc(C)c2[nH]c(Nc3cc(S(=O)(=O)NC4CC4)ccc3-c3ccsc3)nc2c1
Q = CC(C)(O)CNc1nc(Nc2ccnc(C(F)(F)F)c2)nc(-c2cccc(C(F)(F)F)n2)n1
Which of the two gives a bigger number for IC50: P or Q ? // return label of chosen record
P

---

pIC50: −log10 of the molar value.
System: Isocitrate dehydrogenase [NADP] cytoplasmic (Homo sapiens) | Read-out: pIC50

Recorded pIC50 for O=S(=O)(NC1CC1)c1ccc(-c2ccsc2)c(Nc2nc3ccc(Br)c(Br)c3[nH]2)c1 on Isocitrate dehydrogenase [NADP] cytoplasmic (Homo sapiens) was < 4.00

Shift focus to the following entry.
Recorded pIC50 for O=C(Nc1cccc(C(F)(F)F)c1)Nc1cc(S(=O)(=O)NC2CC2)ccc1-c1ccsc1 on Isocitrate dehydrogenase [NADP] cytoplasmic (Homo sapiens) was < 4.00

---

Listing: IC50 of selected compounds
molecular target: Isocitrate dehydrogenase [NADP] cytoplasmic (Homo sapiens, UniProt O75874, R132H); assay: Inhibition of IDH1 R132H mutant (unknown origin)
Sequence (O75874 2-414 R132H limits assumed): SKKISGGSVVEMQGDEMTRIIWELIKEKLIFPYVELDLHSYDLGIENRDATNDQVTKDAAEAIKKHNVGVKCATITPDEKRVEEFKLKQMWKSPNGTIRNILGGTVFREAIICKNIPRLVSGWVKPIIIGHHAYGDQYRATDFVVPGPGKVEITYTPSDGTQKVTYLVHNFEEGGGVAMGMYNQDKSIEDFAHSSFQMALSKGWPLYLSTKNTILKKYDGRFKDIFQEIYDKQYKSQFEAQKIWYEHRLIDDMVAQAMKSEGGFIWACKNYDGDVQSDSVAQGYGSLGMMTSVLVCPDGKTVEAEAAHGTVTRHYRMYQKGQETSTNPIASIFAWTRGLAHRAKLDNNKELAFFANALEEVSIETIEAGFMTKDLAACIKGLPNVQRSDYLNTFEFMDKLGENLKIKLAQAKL

get_value(item= Cc1ccccc1C(C(=O)NC1CCCCC1)N(C(=O)Cn1ccnc1C)c1cccc(F)c1 (configuration not stated) , readout=IC50) returns 0.17 µM

get_value(item= O=S(=O)(NC1CC1)c1ccc(-c2ccsc2)c(Nc2nc3cc(F)ccc3[nH]2)c1 , readout=IC50) returns > 100 µM

get_value(item= O=S(=O)(NC1CC1)c1ccc(-c2ccsc2)c(Nc2nc3cc(Br)ccc3[nH]2)c1 , readout=IC50) returns > 100 µM

get_value(item= O=C(Nc1cccc(C(F)(F)F)c1)Nc1cc(S(=O)(=O)NC2CC2)ccc1-c1ccsc1 , readout=IC50) returns > 100 µM

get_value(item= O=S(=O)(NC1CC1)c1ccc(-c2ccsc2)c(Nc2nc3ccc(Br)c(Br)c3[nH]2)c1 , readout=IC50) returns > 100 µM

get_value(item= Cc1cc(C)c2[nH]c(Nc3cc(S(=O)(=O)NC4CC4)ccc3-c3ccsc3)nc2c1 , readout=IC50) returns > 100 µM

---
get_value(item= CC(C)(O)CNc1nc(Nc2ccnc(C(F)(F)F)c2)nc(-c2cccc(C(F)(F)F)n2)n1 [ENASIDENIB] , readout=IC50) returns > 100 µM

---

biological target: Isocitrate dehydrogenase [NADP], mitochondrial (Homo sapiens, UniProt P48735, R140Q); assay: Inhibition of IDH2 R140Q mutant (unknown origin)
pIC50: −log10 of the molar value.
Observable: pIC50

1 = Cc1cc(C)c2[nH]c(Nc3cc(S(=O)(=O)NC4CC4)ccc3-c3ccsc3)nc2c1
2 = N#Cc1ccc2nc(Nc3cc(S(=O)(=O)NC4CC4)ccc3-c3ccsc3)[nH]c2c1
3 = O=S(=O)(NC1CC1)c1ccc(-c2ccsc2)c(Nc2nc3ccc(C(F)(F)F)cc3[nH]2)c1
Method: rank(items above, key=pIC50, ascending=True) # answer = labels listed in requested order
2, 3, 1

---

target: Isocitrate dehydrogenase [NADP], mitochondrial (Homo sapiens, UniProt P48735, R172K); test: Inhibition of IDH2 R172K mutant (unknown origin)
pIC50: −log10 of the molar value.
Observable: pIC50

The examples below pair each entry with its known result.
Recorded pIC50 for O=S(=O)(NC1CC1)c1ccc(-c2ccsc2)c(Nc2nc3cc(Br)ccc3[nH]2)c1 on Isocitrate dehydrogenase [NADP], mitochondrial (Homo sapiens, UniProt P48735, R172K) was < 4.00

Recorded pIC50 for O=S(=O)(NC1CC1)c1ccc(-c2ccsc2)c(Nc2nc3ccc(Br)c(Br)c3[nH]2)c1 on Isocitrate dehydrogenase [NADP], mitochondrial (Homo sapiens, UniProt P48735, R172K) was < 4.00

Shift focus to the following entry.
Recorded pIC50 for Cc1ccccc1C(C(=O)NC1CCCCC1)N(C(=O)Cn1ccnc1C)c1cccc(F)c1 (stereo not drawn) on Isocitrate dehydrogenase [NADP], mitochondrial (Homo sapiens, UniProt P48735, R172K) was < 4.00
